# EC50 values compiled below
procedure_details: NIH3T3 cell viability loss – ATP luminescence, mouse fibroblasts, counter-screen, dose response (AID 2010);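 note: cells exposed to compound for about 90 hours before reading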
Format: functional, cell-based
Active and inactive are the calls of the source. Cut-off read from the data, not from the text of the source: actives have a measured EC50 and inactives only a lower limit.

Cc1ccc(C[n+]2cccc(-c3ccccc3)c2)c(C)c1    11.9 µM (active)
N=c1c2c(-c3ccccc3)c(-c3ccccc3)n(Cc3ccccc3)c2ncn1CCO    > 30 µM (not active)
CCO[C@@H]1OC(C(=O)N2CCN(Cc3ccc4c(c3)OCO4)CC2)=C[C@H](C2CCCCC2)[C@H]1CCCO    > 60 µM (not active)
COc1ccccc1N1CCN(Cc2c[nH]c3ccccc23)CC1    > 60 µM (not active)
COc1ccc2[nH]c(C)c(CCN(Cc3cccs3)C(S)=Nc3ccccc3OC)c2c1    > 60 µM (not active)
O=C(N/N=C/c1cc(Br)cc(Br)c1O)c1cccc(N2CCCC2=O)c1    > 60 µM (not active)

Returns the measured EC50 for the input compound. Input: Cc1ccc(-n2nnnc2SCC(=O)c2cc(C)n(CC3CCCO3)c2C)cc1 (stereo not given)
> 30 µM (not active)

Returns the measured EC50 for the input compound. Input: O=C(Nc1ccc(F)c(Cl)c1)C1CCCN(c2cnccn2)C1 (stereo not given)
> 60 µM (not active)

Returns the measured EC50 for the input compound. Input: Cc1nn(C(C)C)c(C)c1CN1CCC(C(=O)Nc2cccc(-c3cccc(F)c3)c2)CC1
30.4 µM (active)

Returns the measured EC50 for the input compound. Input: CCC(C)NC(=O)c1c(N)n(/N=C/c2ccccn2)c2nc3ccccc3nc12 (stereo not given)
> 30 µM (not active)
